// provenance: patent US10239887B2

- Protocol text: intrinsic clearance, human
- Type: in vitro ADME
Reported property: CLint scaled
In your response, put the unit directly after the numeric value.

Noted for Cc1nnc2sc3c(NCc4ccc(C(C)(C)O)cc4)ncnc3c2c1C : its CLint scaled reads 15 mL/min/kg

---

A collection of molecules and their measured Emax
- Target of assay: human mAChR M4 (Homo sapiens, UniProt P08173)
- Sequence (P08173 1-479): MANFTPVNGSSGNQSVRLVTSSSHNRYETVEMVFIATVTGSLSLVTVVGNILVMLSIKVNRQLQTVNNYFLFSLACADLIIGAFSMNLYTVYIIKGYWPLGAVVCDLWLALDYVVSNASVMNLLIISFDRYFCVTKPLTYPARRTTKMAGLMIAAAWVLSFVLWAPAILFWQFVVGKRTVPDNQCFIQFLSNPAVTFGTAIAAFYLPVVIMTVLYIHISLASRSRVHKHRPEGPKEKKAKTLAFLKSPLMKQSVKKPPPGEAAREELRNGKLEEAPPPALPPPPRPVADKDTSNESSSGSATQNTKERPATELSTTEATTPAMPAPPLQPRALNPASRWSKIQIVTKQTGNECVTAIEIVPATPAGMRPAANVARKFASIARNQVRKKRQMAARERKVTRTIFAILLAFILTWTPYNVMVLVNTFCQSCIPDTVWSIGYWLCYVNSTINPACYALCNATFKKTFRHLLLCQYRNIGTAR
- Protocol text: mAChR M4 cell-based functional assay (calcium flux), human M4
- Protocol conditions: Human M4; % ACh maximum at 30 μM
Dear colleague, please return just the value in %, with no unit written.

Cc1cnc2sc3c(N4CC5(COC5)C4)ncnc3c2c1 = 36
Cc1nnc2sc3c(N4CC(Oc5ccc(F)cc5)C4)ncnc3c2c1C = 65
Cc1nc2oc3c(NCc4ccc(C(C)(C)O)cc4)ncnc3c2c(C)c1Cl = 61.8
Cc1nnc2sc3c(NCc4ccc(C(C)(C)O)cc4)ncnc3c2c1C = 86

Lab note: molecule Cc1nnc2sc3c(NC4CCCCC4)ncnc3c2c1C tested on human mAChR M4 (Homo sapiens, UniProt P08173); recorded Emax was 52

---

- Protocol text: in vivo
- Protocol conditions: rat, plasma
Reported property: Vd (L/kg)
Dear colleague, please return just the value in L/kg, with no unit written.

Noted for Cc1nnc2sc3c(NCc4ccc(C(C)(C)O)cc4)ncnc3c2c1C : its Vd reads 1

---

- Target of assay: human mAChR M4 (Homo sapiens)
- Protocol text: mAChR M4 cell-based functional assay (calcium flux), human M4
- Protocol conditions: Table 10; % ACh maximum at 30 μM
Structures can show the parent of a compound that is named as a salt.
Reported property: Emax

// known answers, use as guide
Cc1nnc2sc3c(N4CC(Nc5ncccc5C#N)C4)ncnc3c2c1C [Compound 141, trifluoroacetate] = 66.4%
Cc1nc2sc3c(NCc4ccc5c(c4)CC(C)(C)O5)ncnc3c2c(C)c1Cl [Compound 270, dihydrochloride] = 22%
Cc1c(Cl)cnc2sc3c(NCc4ccc5c(c4)CC(C)(C)O5)ncnc3c12 = 40.6%

Then there is this compound:
Noted for Cc1nnc2sc3c(NCc4ccc(C(=O)NC(C)C(C)(C)CO)cc4)ncnc3c2c1C (stereo not shown) : its Emax reads 85%

---

- Target of assay: UniProtKB P08173
- Sequence (P08173 1-479): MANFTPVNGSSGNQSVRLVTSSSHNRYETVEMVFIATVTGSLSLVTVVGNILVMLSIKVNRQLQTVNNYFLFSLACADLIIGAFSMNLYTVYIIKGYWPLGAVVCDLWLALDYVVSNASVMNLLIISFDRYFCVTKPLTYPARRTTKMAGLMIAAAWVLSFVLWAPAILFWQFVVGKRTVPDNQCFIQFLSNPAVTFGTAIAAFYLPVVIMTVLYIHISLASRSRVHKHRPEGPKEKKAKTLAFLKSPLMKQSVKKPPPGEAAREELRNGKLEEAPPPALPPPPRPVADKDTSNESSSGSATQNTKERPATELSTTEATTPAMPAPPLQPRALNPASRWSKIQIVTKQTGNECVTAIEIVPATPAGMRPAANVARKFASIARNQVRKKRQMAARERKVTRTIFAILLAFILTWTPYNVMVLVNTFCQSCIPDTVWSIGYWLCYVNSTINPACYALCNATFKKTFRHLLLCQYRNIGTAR
- Protocol text: mAChR M4 cell-based functional assay (calcium flux), human M4
- Protocol conditions: Human M4; % ACh maximum at 30 μM
Counter-ions that a name gives are not always drawn.
Lab note: cut-off is 60%. Strictly less in Emax is Condition met. Exactly 60% or more is Condition not met.

Prompt: Could you please tell me whether Emax recorded for Cc1nnc2sc3c(N4CCCC4)ncnc3c2c1C is less than 60%?
Response: Condition not met

Prompt: Could you please tell me whether Emax recorded for Cc1cc(C)c2c(n1)oc1c(NC3CC3c3ccc(F)c(F)c3)ncnc12 (stereo not drawn) [Compound 61, hydrochloride] is less than 60%?
Response: Condition met

Prompt: Could you please tell me whether Emax recorded for Cc1nnc2sc3c(N4CC5CC5C4)ncnc3c2c1C (stereo not drawn) is less than 60%?
Response: Condition not met

Prompt: Could you please tell me whether Emax recorded for Cc1cnc2sc3c(N4CCC4)ncnc3c2c1 is less than 60%?
Response: Condition met

Prompt: Could you please tell me whether Emax recorded for Cc1nnc2sc3c(N4CC(F)(F)C4)ncnc3c2c1C is less than 60%?
Response: Condition not met

Prompt: Could you please tell me whether Emax recorded for Cc1cnc2sc3c(NC4CN(c5ncc(C(F)(F)F)cn5)C4)ncnc3c2c1 is less than 60%?
Response: Condition met

Prompt: Could you please tell me whether Emax recorded for Cc1cc(C)c2c(n1)oc1c(N3CC4(COC4)C3)ncnc12 is less than 60%?
Response: Condition met

Prompt: Could you please tell me whether Emax recorded for Cc1nnc2sc3c(NC4CCOCC4)ncnc3c2c1C is less than 60%?
Response: Condition met

---

- Target of assay: human mAChR M4 (Homo sapiens)
- Sequence (P08173 1-479): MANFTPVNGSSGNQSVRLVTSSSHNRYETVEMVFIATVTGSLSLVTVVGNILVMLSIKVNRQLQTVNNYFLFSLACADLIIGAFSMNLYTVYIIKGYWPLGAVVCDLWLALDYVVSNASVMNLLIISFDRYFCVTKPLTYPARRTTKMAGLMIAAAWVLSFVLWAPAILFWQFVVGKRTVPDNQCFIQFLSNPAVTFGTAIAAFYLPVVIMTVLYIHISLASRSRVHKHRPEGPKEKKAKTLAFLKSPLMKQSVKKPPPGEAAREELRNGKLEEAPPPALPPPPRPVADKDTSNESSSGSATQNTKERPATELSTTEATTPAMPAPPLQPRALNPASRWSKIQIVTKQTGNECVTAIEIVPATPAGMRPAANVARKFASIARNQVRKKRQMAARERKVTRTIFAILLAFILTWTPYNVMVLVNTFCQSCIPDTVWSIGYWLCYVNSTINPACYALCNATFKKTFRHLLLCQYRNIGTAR
- Protocol text: mAChR M4 cell-based functional assay (calcium flux), human M4
- Protocol conditions: Human M4 EC50, CHO-K1 hM4-Gqi5 cells; calcium flux; increase in EC20 acetylcholine response
Where a name gives a salt, the structure may show the parent alone.
Reported property: pEC50
Note: pEC50 values are expressed as the negative base-10 logarithm of concentration in M.

// known answers, use as guide
Cc1cc(C)c2c(n1)oc1c(N3CC4(COC4)C3)ncnc12 = 5.47
Cc1nnc2oc3c(NC4CC4)ncnc3c2c1C = 5.88
Cc1nnc2sc3c(N4CC(=O)C4)ncnc3c2c1C = 6.00
Cc1nnc2sc3c(N4CCCCC4)ncnc3c2c1C = 6.92
Cc1nnc2sc3c(NC4CCCCC4)ncnc3c2c1C = 6.14

Noted for Cc1nnc2sc3c(N4CC5(COC5)C4)ncnc3c2c1C : its pEC50 reads 6.91

Noted for Cc1nnc2sc3c(N(C)C)ncnc3c2c1C : its pEC50 reads 6.20

Noted for Cc1nnc2sc3c(NC4CCOCC4)ncnc3c2c1C : its pEC50 reads 6.35

Noted for CNc1ncnc2c1oc1nc(C)c(Cl)c(C)c12 [Compound 44, hydrochloride] : its pEC50 reads 5.77

Noted for Cc1cnc2sc3c(N4CCC(F)(F)C4)ncnc3c2c1 : its pEC50 reads 6.42

---

- Target of assay: rat mAChR M4 (Rattus norvegicus, UniProt P08485)
- Sequence (P08485 1-478): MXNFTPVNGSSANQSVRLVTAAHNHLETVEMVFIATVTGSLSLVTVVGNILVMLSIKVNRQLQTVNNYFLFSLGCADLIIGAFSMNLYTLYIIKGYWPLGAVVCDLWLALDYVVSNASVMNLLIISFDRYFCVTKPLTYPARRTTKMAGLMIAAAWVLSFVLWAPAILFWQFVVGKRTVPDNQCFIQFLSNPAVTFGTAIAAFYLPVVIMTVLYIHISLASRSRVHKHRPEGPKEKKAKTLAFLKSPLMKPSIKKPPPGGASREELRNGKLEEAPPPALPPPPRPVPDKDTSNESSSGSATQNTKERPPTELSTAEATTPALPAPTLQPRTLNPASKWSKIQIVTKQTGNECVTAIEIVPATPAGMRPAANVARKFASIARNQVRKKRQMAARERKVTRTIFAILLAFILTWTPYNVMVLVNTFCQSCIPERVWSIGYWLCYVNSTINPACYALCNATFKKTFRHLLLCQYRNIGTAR
- Protocol text: mAChR M4 cell-based functional assay (calcium flux), rat M4
- Design: dose or concentration left out as unconfirmed
A collection of compounds and their measured Emax
Dear colleague, please return just the value in %, with no unit written.

// known answers, use as guide
Cc1nnc2sc3c(NC4CCOCC4)ncnc3c2c1C = 60
Cc1nnc2sc3c(N4CCN(C5CC5)CC4)ncnc3c2c1C = 42
Cc1nnc2sc3c(N4CCCC4)ncnc3c2c1C = 82
Cc1nnc2sc3c(NC4CCCCC4)ncnc3c2c1C = 62
Cc1cnc2sc3c(N4CC5(COC5)C4)ncnc3c2c1 = 54
Cc1nnc2sc3c(N4CCC(N(C)C)C4)ncnc3c2c1C (centres unmarked) = 55
COCC1CN(c2ncnc3c2sc2nnc(C)c(C)c23)C1 = 75
Cc1nnc2sc3c(N4CCCCC4)ncnc3c2c1C = 58
Cc1cnc2sc3c(NC4CN(c5ncc(C(F)(F)F)cn5)C4)ncnc3c2c1 = 76
COCCN(C)c1ncnc2c1sc1nnc(C)c(C)c12 = 57

Noted for Cc1nnc2sc3c(N4CC5CC5C4)ncnc3c2c1C (centres unmarked) : its Emax reads 86

Noted for Cc1nnc2sc3c(N4CC5(COC5)C4)ncnc3c2c1C : its Emax reads 86
